targetSystem: histamine H4 receptor (Homo sapiens, UniProt Q9H3N8)
Sequence (Q9H3N8 whole entry, species assumed): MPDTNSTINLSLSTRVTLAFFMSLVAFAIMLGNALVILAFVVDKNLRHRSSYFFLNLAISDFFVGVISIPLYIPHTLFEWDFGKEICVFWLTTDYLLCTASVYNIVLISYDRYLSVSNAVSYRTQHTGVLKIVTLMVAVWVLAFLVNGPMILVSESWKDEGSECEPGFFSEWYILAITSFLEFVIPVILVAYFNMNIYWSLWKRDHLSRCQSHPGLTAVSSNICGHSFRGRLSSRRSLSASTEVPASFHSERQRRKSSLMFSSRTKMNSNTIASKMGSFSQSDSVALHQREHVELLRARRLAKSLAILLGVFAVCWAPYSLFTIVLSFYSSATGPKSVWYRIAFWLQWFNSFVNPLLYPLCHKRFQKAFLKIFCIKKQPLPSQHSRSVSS
reportedMetric: Ki (µM)

# chemicalStructure, targetSystem, reportedMetric, measuredNumber
measured = [
    ("Cc1cccc2c(N3CCN(C)CC3)nc(N)nc12", "histamine H4 receptor (Homo sapiens, UniProt Q9H3N8)", "Ki", 0.091),
    ("Cc1ccc2c(N3CCN(C)CC3)nc(N)nc2c1", "histamine H4 receptor (Homo sapiens, UniProt Q9H3N8)", "Ki", 0.024),
    ("CN1CCN(c2nc(N)nc3cc(Br)ccc23)CC1", "histamine H4 receptor (Homo sapiens, UniProt Q9H3N8)", "Ki", 0.017),
    ("CN1CCN(c2nc(N)nc3c(Br)cccc23)CC1", "histamine H4 receptor (Homo sapiens, UniProt Q9H3N8)", "Ki", 0.111),
    ("CN1CCN(c2nc(N)nc3cc(-c4ccsc4)ccc23)CC1", "histamine H4 receptor (Homo sapiens, UniProt Q9H3N8)", "Ki", 0.005),
]
